Target: 5-lipoxygenase (5-LO) (Homo sapiens)
Construct: endogenous in cells; host or cells: human polymorphonuclear leukocytes from donor blood
Assay: 5-LO inhibiting activity in human polymorphonuclear leukocytes ([14C]-arachidonic acid, A23187; HPLC of eicosanoids)
Assay type: cell-based
measured property: pIC50
pIC50 here: minus log base 10 of the concentration, concentration in moles per litre.

Value of measured pIC50 for the entry Oc1c(I)cc(I)cc1I : 5.00

---

Could you please report measured pIC50 for the items listed next?
Target: 5-lipoxygenase (5-LO) (Homo sapiens, UniProt P09917)
Construct: endogenous in cells; host or cells: human polymorphonuclear leukocytes from donor blood
Sequence (P09917 whole entry): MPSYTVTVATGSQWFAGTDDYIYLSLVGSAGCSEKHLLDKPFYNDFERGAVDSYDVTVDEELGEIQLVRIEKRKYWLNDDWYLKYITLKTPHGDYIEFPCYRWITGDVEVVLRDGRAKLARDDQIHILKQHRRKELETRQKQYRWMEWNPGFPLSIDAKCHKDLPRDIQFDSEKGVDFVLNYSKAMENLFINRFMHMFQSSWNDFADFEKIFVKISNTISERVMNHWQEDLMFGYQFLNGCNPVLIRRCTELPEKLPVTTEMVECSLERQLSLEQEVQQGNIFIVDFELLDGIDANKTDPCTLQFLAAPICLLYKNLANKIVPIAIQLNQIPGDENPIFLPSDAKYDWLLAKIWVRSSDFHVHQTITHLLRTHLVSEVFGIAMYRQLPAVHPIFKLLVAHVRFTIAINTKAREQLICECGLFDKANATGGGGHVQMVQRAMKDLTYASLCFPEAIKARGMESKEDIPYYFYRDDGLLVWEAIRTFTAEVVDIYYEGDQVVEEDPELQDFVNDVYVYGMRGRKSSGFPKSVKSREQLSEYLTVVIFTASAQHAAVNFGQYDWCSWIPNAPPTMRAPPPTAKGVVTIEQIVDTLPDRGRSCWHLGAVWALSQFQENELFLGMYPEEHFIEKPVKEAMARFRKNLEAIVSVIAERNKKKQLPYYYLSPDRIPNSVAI
Experiment: 5-LO inhibiting activity in human polymorphonuclear leukocytes ([14C]-arachidonic acid, A23187; HPLC of eicosanoids)
Type: cell-based
Settings: human polymorphonuclear leukocytes; AA 10 μM, A23187 5 μM; average of five different peaks; read-out: IC50 (concentration of the drug which inhibits 50% of the AA converted by 5-LO)
Field pIC50 (float): negative decimal logarithm of the concentration in molar.

Given item CC(C(=O)O)c1ccc2oc(-c3ccc(Cl)cc3)nc2c1 (centres unmarked) [benoxaprofen, reference compound] , the value recorded as its pIC50 is 4.04

Query CC(=O)N1CCN(c2ccc(OCC3COC(Cn4ccnc4)(c4ccc(Cl)cc4Cl)O3)cc2)CC1 (centres unmarked) [ketaconozale, ketoconazole, reference compound] yields pIC50 of 3.99
